Target: human thymidylate synthase (TS) (Homo sapiens)
Construct: screening in live, non-engineered cells expressing thymidylate synthase; endogenous in cells; host or cells: K562 (human myelogenous leukemia) cells
Sequence (P04818 2-313 limits assumed): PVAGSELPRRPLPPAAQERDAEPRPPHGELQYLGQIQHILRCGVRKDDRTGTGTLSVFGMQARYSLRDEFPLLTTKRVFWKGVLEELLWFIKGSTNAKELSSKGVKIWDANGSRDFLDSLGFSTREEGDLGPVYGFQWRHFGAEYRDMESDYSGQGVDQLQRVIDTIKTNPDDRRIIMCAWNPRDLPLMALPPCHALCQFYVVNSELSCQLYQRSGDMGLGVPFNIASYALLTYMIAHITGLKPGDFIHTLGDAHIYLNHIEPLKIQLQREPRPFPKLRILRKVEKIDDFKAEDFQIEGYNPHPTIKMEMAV
Assay: CETSA primary screen / single-concentration retest, AlphaScreen, live K562 cells
Format: cell-based
Settings: 50 μM compound, 2 h preincubation, 50 °C; 0% = DMSO, 100% = 100 nM raltitrexed
assayMetric: % stabilization in screen (%)

# compound, number
data = [
    ("O=c1[nH]c(=O)n([C@H]2C[C@@H](O)[C@@H](CO)O2)cc1O [CBK201317]", 16),
]

I = Cc1cc2cn([C@H]3C[C@@H](O)[C@@H](CO)O3)c(=O)nc2[nH]1 [CBK201302]
II = COC1C(O)C(CO)OC1n1cc(F)c(Oc2c(C)cc(C)cc2C)nc1=O (stereo not drawn) [CBK201279]
Of the two listed items, I and II , which carries the larger % stabilization in screen figure? Pick one; state its label. I
